Test system: MS2 coat protein
Experiment: apparent KD of MS2 coat protein; higher = weaker reporter binding
Details: Eterna round: R107; input ligand: tryptophan 2.4 mM
The label depends only on apparent KD of MS2 coat protein: true if it is at least 0.05 µM, false if it is smaller.

Observe how each entry below is paired with its result.
INSERT INTO results (primary_sequence, target_or_test_system, cat) VALUES
  ('ACGCUGAUUGAUUACAAUCAGCGAAAAGAUACCAGUGGGUAAUCCCACCCUUGGCAGCUUAAACAUGAGGAUCACCCAUGUGGUA [TheoAS 14 #MS2Right #BothOrNeither #AlternativeMS2]', 'MS2 coat protein', 'true'),
  ('AAGGUAUCACAGAGGUGAUUCAACUGUGAUACCAGCUAGGAAACUAGCCCUUGGCAGCACAUGAGGAUCACCCAUGUAAGAAUAA [(T)''-(M)''-(T1)-(T2)-(M1)-(M2)_Design3_2/19/17]', 'MS2 coat protein', 'false'),
  ('UAUCCACAUGAGGAUCACCCAUGUAGGGAAGGAGCGGUGAUUUCACCAGGUAGGUCGCCUUGCUGAGGGUUGCCGGUGGAAUCGU [Exclusion - Arginine A (Freestyle 33)]', 'MS2 coat protein', 'false'),
  ('AACAUGAGGAUCACCCAUGUAUUGGGUGAUACCAGCCUGAAUAAUGGCCCUUGGCAGCACCGCGCUAACUUUAUGUCUGCGAAAC [Erterean]', 'MS2 coat protein', 'true'),
  ('CGUAUGUAGACGGCCGCCACUGGAACCUGAGGAUCACCCAGGUACAGGGUGGGUAACUCGAGAGUCAGGACCGGGUCUACAUACA [Tryp B Ex t3]', 'MS2 coat protein', 'false');

For this sequence, is measured apparent KD of MS2 coat protein 0.05 µM or higher? AGACUGUCUUCGGACAGUCCGGACAGCCCGCGAGGACCGGUACGGCCGCCACUCGCACGAGGAUCACCCGUGUGAGGCUGUCCGA [Omei Tryp A Exc A v2]
false

For this sequence, is measured apparent KD of MS2 coat protein 0.05 µM or higher? AACAUGAGGAUCACCCAUGUCCUCGUGAUUCGAGGACCGGUACGGCCGCCACUCGGUCCUCGCGAGGAGGAGUCAAAGACUCCAA [Omei Trp A SS A v1]
true

For this sequence, is measured apparent KD of MS2 coat protein 0.05 µM or higher? GAGGUCCUGAGAGAUACCAGUGAGGCCACAUGAGGAUCACCCAUGUCCCUCACUCCGGCCCACCCUUGGCAGCUCGGAAGGUAAA [Exclusion Theophylline B GF 23]
false

For this sequence, is measured apparent KD of MS2 coat protein 0.05 µM or higher? UGUAUGUGAUUUGAUACCAGACCAGCUGGUGGUACACGAGGAUCACCCGUGUAGGUUUGGGUCCCUUGGCAGCAAAUCGCAUACU [SS Theo B #24 Ms3]
true

For this sequence, is measured apparent KD of MS2 coat protein 0.05 µM or higher? AAACGAGAGACAGAUACCAGCGCAGGAACGGAGUAUGGUGACAUGAGGAUCACCCAUGUGCGCCCUUGGCAGCUGAGCCGUAUUG [theeternabot_exclusion_MS2_Theo_B_37]
false

For this sequence, is measured apparent KD of MS2 coat protein 0.05 µM or higher? AGUAAUCUAUCAGAUACCAGACCCUCUUUAACAUGAGGAUCACCCAUGUCUAUGUUCUACGUCCCUUGGCAGCUGUAAAUGAUAA [JR_SSTheophyB_Sub002]
true
